- tested.on: DLK (Homo sapiens, UniProt Q12852)
- Construct: 10 nM DLK, catalytic domain, Carna Biosiences; purchased Carna Biosciences ('Carna Biosiences' [sic])
- experiment.description: DLK biochemical assay (TR-FRET, MKK7 phosphorylation)
- condition.set: DLK catalytic domain, MKK7 substrate, 60 μM ATP
measurement.kind: pIC50
Here pIC50 is given on a logarithmic scale as minus log10 of the concentration in mol/L.

{"columns": ["compound", "pIC50"],
 "data": [
  ["CC[C@H](C)NC(=O)c1cc(-c2cnn(C(c3ccc(C(F)F)nc3)C(C)C)c2)cn2nc(N)nc12 (mixture of isomers) [Example I-67]", 8.96],
  ["CCC(c1ccc(C(F)(F)F)nc1)n1cc(-c2cc(C(=O)N[C@@H](C)CO)c3nc(N)nn3c2)cn1 (single isomer, unassigned) [Example I-153]", 8.21],
  ["CC[C@H](C)NC(=O)c1cc(-c2cnn(Cc3cccc4cn[nH]c34)c2)cn2nc(N)nc12 (single isomer, unassigned) [Example I-23]", 8.57],
  ["CC[C@H](C)NC(=O)c1cc(-c2cnn(C(c3ccc(C(F)F)nc3)C3CC3)c2)cc2nc(N)nn12 (mixture of isomers) [Example I-98]", 8.07]
]}

CC[C@H](C)NC(=O)c1cc(-c2cnn(C(COC)c3ccccc3)c2)cn2nc(N)nc12 (single isomer, unassigned) [Example I-42] yielded pIC50 of 8.01

CC(C)C(c1cncc(Cl)c1)n1cc(-c2cc(C(=O)NC(C)(C)CO)c3nc(N)nn3c2)cn1 (single isomer, unassigned) [Example I-173] yielded pIC50 of 8.70

====

- tested.on: DLK (Homo sapiens, UniProt Q12852)
- Construct: 10 nM DLK, catalytic domain, Carna Biosiences; purchased Carna Biosciences ('Carna Biosiences' [sic])
- experiment.description: DLK biochemical assay (TR-FRET, MKK7 phosphorylation)
Category scheme (IC50): category 1: < 0.009 µM; category 2: ≥ 0.009 µM and < 0.03 µM; category 3: ≥ 0.03 µM

Problem: Each compound maps to one class by IC50. Which class for CCC(c1ccc(N2CCOCC2)cc1)n1cc(-c2cc(-c3cnn(CC(F)(F)F)c3)c3nc(N)nn3c2)cn1 (single isomer, unassigned) [II-103] ?
Result: category 3

Problem: Each compound maps to one class by IC50. Which class for Nc1nc2cc(-c3cnn(C(c4ccccc4)C4CCNCC4)c3)cc(-c3cnn(CC(F)(F)F)c3)n2n1 (stereo not shown) [II-152] ?
Result: category 1

Problem: Each compound maps to one class by IC50. Which class for CCC(c1ccc(C(F)(F)F)nc1)n1cc(-c2cc(-c3cnn(CC(F)(F)F)c3)c3nc(N)nn3c2)cn1 (single isomer, unassigned) [II-113] ?
Result: category 2

====

Listed molecules paired with reported IC50
- tested.on: DLK (Homo sapiens, UniProt Q12852)
- Construct: 10 nM DLK, catalytic domain, Carna Biosiences; purchased Carna Biosciences ('Carna Biosiences' [sic])
- Sequence (Q12852 125-366 limits assumed): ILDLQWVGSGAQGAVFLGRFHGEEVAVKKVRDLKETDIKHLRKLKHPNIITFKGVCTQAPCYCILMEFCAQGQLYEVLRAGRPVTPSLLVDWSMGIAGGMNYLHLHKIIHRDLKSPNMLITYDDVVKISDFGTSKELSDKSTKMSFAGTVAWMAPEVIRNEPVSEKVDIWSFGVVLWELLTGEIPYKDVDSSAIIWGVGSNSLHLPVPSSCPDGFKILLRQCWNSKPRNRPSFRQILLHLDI
- experiment.description: DLK biochemical assay (TR-FRET, MKK7 phosphorylation)
- condition.set: DLK catalytic domain, MKK7 substrate, 60 μM ATP
Write down the numeric answer in nM and omit the unit.

Please review the following examples before continuing.
{"columns": ["molecule", "unit.annotation", "IC50"],
 "data": [
  ["CCC(c1ccc(N2CCOCC2)cc1)n1cc(-c2cc(C(=O)N[C@@H](C)CC)c3nc(N)nn3c2)cn1 (mixture of isomers) [Example I-47]", "nM", 3.8],
  ["CCC(c1cncc(Cl)c1)n1cc(-c2cc(C(=O)N[C@@H](C)CC)c3nc(N)nn3c2)cn1 (mixture of isomers) [Example I-58]", "nM", 1.6]
]}

Nc1nc2c(C(=O)NC3CNC(=O)C3)cc(-c3cnn(Cc4ccc(F)cc4)c3)cn2n1 (racemic) yielded IC50 of 23

====

- tested.on: LZK (Homo sapiens, UniProt O43283)
- Construct: 10 nM LZK, catalytic domain, Carna Biosiences in assay buffer; purchased Carna Biosciences ('Carna Biosiences' [sic])
- Sequence (O43283 168-409 limits assumed): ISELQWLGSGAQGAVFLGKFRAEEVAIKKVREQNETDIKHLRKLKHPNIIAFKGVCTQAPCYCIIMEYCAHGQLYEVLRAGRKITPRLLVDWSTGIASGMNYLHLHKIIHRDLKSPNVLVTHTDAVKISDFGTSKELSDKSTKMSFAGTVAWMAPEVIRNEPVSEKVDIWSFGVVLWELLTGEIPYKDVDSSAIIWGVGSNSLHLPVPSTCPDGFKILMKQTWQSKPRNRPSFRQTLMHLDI
- experiment.description: LZK biochemical assay (TR-FRET, MKK7 phosphorylation)
measurement.kind: pIC50
Here pIC50 is given on a logarithmic scale as minus log10 of the concentration in mol/L.

{"columns": ["compound", "tested.on", "measurement.kind", "endpoint.value"],
 "data": [
  ["Nc1nc2cc(-c3cnn(Cc4ccccc4)c3)cc(-c3cnccn3)n2n1", "LZK (Homo sapiens, UniProt O43283)", "pIC50", 6.05]
]}

Nc1nc2cc(-c3cnn(C(c4ccc(C(F)(F)F)nc4)C4CCOCC4)c3)cc(-c3ccc(=O)n(CC(F)F)c3)n2n1 (stereo not shown) [II-185] yielded pIC50 of 8.70

`Nc1nc2cc(-c3cnn(Cc4ccccc4)c3)cc(-c3cnc(C4CC4)nc3)n2n1` yielded pIC50 of 6.54

CCC(c1ccc(OC(F)(F)F)nc1)n1cc(-c2cc(-c3ccc(=O)n(CC(F)(F)F)c3)c3nc(N)nn3c2)cn1 (stereo not shown) [II-163] yielded pIC50 of 7.60

====

- tested.on: DLK (Homo sapiens, UniProt Q12852)
- Construct: 10 nM DLK, catalytic domain, Carna Biosiences; purchased Carna Biosciences ('Carna Biosiences' [sic])
- experiment.description: DLK biochemical assay (TR-FRET, MKK7 phosphorylation)
pIC50: −log10 of the molar value.
# cutoff 8 applies to pIC50; >= gives yes (1), < gives no (0)

Previously resolved entries follow.
{"columns": ["compound", "category"],
 "data": [
  ["Nc1nc2cc(-c3cnn(C(c4ccc(C(F)F)nc4)C4CCOCC4)c3)cc(-c3ccc(C(F)(F)F)nc3)n2n1 (single isomer, unassigned) [II-78]", "yes (1)"],
  ["CCC(c1ccc(OC(F)(F)F)nc1)n1cc(-c2cc(-c3ccc(=O)n(CC(F)(F)F)c3)c3nc(N)nn3c2)cn1 (single isomer, unassigned) [II-164]", "yes (1)"],
  ["CCC(c1ccc(C(F)(F)F)nc1)n1cc(-c2cc(-c3ccnc(C4(F)CC4)c3)n3nc(N)nc3c2)cn1 (racemic) [II-31]", "no (0)"]
]}

Problem: Answer whether pIC50 of `Nc1nc2cc(-c3cnn(Cc4ccccc4)c3)cc(-c3cnccn3)n2n1` is greater than or equal to 8.
Result: no (0)

====

- tested.on: LZK (Homo sapiens)
- Construct: 10 nM LZK, catalytic domain, Carna Biosiences in assay buffer; purchased Carna Biosciences ('Carna Biosiences' [sic])
- experiment.description: LZK biochemical assay (TR-FRET, MKK7 phosphorylation)
- condition.set: LZK catalytic domain, MKK7 substrate, 15 μM ATP
Listed compounds paired with reported IC50
Write down the numeric answer in nM and omit the unit.

{"columns": ["compound", "IC50 (nM)"],
 "data": [
  ["CC[C@@H](c1ccc(OC(F)(F)F)nc1)n1cc(-c2cc(C(=O)NC(C)(C)CO)c3nc(N)nn3c2)cn1 (single isomer, unassigned) [Example I-170]", 18],
  ["CC(CF)NC(=O)c1cc(-c2cnn(C(c3ccccc3)C(C)C)c2)cn2nc(N)nc12 (single isomer, unassigned) [Example I-141]", 355],
  ["CC[C@H](C)NC(=O)c1cc(-c2cnn(C(CC#N)C(F)(F)F)c2)cc2nc(N)nn12 (stereo partly drawn) [Example I-2]", 74],
  ["CC[C@H](C)NC(=O)c1cc(-c2cnn(C3CCN(Cc4ccccc4)CC3)c2)cn2nc(N)nc12 (single isomer, unassigned) [Example I-10]", 9],
  ["CC[C@H](C)NC(=O)c1cc(-c2cnn(C(c3ccccc3)C3CC(F)(F)C3)c2)cn2nc(N)nc12 (single isomer, unassigned) [Example I-33]", 59]
]}

Below: the item to evaluate.
So the reported IC50 for CC[C@H](C)NC(=O)c1cc(-c2cnn(C(c3ccccc3)C3(C)CC3)c2)cn2nc(N)nc12 (single isomer, unassigned) [Example I-29] , on LZK (Homo sapiens), turned out to be 170

====

- tested.on: DLK (Homo sapiens, UniProt Q12852)
- Construct: 10 nM DLK, catalytic domain, Carna Biosiences; purchased Carna Biosciences ('Carna Biosiences' [sic])
- experiment.description: DLK biochemical assay (TR-FRET, MKK7 phosphorylation)
- condition.set: DLK catalytic domain, MKK7 substrate, 60 μM ATP
Rule: measured IC50 below 10 nM gets class 1; anything equal to or greater than 10 nM gets class 0.

Previously resolved entries follow.
{"columns": ["compound", "category"],
 "data": [
  ["CC[C@H](C)NC(=O)c1cc(-c2cnn(C(c3ccccc3)C3CCOCC3)c2)cc2nc(N)nn12 (single isomer, unassigned) [Example I-53]", "class 0"],
  ["CC[C@H](C)NC(=O)c1cc(-c2cnn(C(c3ccc(C(F)(F)F)nc3)C3CCNCC3)c2)cn2nc(N)nc12 (single isomer, unassigned) [Example I-82]", "class 1"],
  ["CC[C@H](C)NC(=O)c1cc(-c2cnn(C(c3cncc(Cl)c3)C(C)C)c2)cn2nc(N)nc12 (mixture of isomers) [Example I-61]", "class 1"],
  ["CCC(c1ccc(OCC(F)(F)F)nc1)n1cc(-c2cc(C(=O)N[C@@H](C)CC)c3nc(N)nn3c2)cn1 (mixture of isomers) [Example I-85]", "class 1"],
  ["CC[C@H](C)NC(=O)c1cc(-c2cnn([C@H](c3ccnc(OC)c3)C(C)C)c2)cc2nc(N)nn12 (single isomer, unassigned)", "class 1"]
]}

Continue with the compound presented below.
Problem: Threshold test, IC50 < 10 nM: CC[C@H](C)NC(=O)c1cc(-c2cnn([C@@H](CC)c3ccc(F)cc3)c2)cc2nc(N)nn12 (single isomer, unassigned)
Result: class 1

From: patent US20230086702A1
